# reported AC50; entries follow
- target.system: Equilibrative nucleoside transporter 1 (Homo sapiens, UniProt Q99808); also: assay procedure not described here
- Sequence (Q99808 whole entry): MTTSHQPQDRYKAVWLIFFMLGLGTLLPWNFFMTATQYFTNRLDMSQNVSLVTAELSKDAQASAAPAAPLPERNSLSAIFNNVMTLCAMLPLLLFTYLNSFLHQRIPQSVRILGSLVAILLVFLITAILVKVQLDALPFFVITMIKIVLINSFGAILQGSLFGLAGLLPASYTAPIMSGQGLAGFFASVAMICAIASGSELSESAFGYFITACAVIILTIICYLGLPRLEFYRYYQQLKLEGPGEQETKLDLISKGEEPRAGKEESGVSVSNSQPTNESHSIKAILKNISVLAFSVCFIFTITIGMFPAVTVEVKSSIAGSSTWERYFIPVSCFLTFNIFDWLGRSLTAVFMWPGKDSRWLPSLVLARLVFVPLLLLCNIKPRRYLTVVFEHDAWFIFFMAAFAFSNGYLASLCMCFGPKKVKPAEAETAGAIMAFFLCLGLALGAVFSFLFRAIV

molecule | AC50
NS(=O)(=O)c1cc(Cl)c(Cl)c(S(N)(=O)=O)c1 [DICHLORPHENAMIDE] | > 10 µM
CN1CCCN=C1COC(=O)C(O)(c1ccccc1)C1CCCCC1 (centres undefined) | 27.5 µM
CC(=O)c1ccc2c(c1)N(CCCN1CCN(CCO)CC1)c1ccccc1S2 | > 30 µM
Cc1cc(-c2ccccc2)nnc1NCCN1CCOCC1 | > 30 µM
C[C@]12CCC(=O)C=C1CC[C@@H]1[C@@H]2CC[C@@]2(C)[C@H]1CC[C@]2(C)O | > 30 µM
COc1ccccc1OCC(O)COC(N)=O (centres undefined) | > 10 µM
O=C1CN=C(c2ccccc2)c2cc(Cl)ccc2N1CC(F)(F)F | > 30 µM
Cc1ccc(C(=O)c2cc(O)c(O)c([N+](=O)[O-])c2)cc1 | > 30 µM
CC(=O)OCC(=O)[C@@]12OC3(CCCC3)O[C@@H]1C[C@H]1[C@@H]3CCC4=CC(=O)C=C[C@]4(C)[C@@]3(F)[C@@H](O)C[C@@]12C [AMCINONIDE] | > 10 µM
